Assay: Pharmacokinetics after 1-min intravenous infusion to control, G-ARF and C-ARF rats
Format: in vivo, Sprague–Dawley rats
Conditions: Sprague-Dawley, rat, plasma, iv, 10 mg/kg, G-ARF rats, read-out: Vss
Experimental: Rats were randomly divided into three groups: control, G-ARF, and C-ARF rats. […] BUN (Blood urea nitrogen) levels were measured in rats on the last day of induction using a BUN detection kit (Asan Pharmaceutical, Seoul, Korea). […] The reconstituted biological samples were filtered through a 0.45-µm filter (Millipore, Billerica, MA, USA) and analyzed with a reversed-phase column (C18; 25 cm × 4.6 mm, 5 µm; Young Jin Biochrom, Seongnam, Korea) using a UV detector at 287 nm. […]
readout.label: Vd (L/kg)

- C[C@@H]1CCN(C(=O)CC#N)C[C@@H]1N(C)c1ncnc2[nH]ccc12: 1.17

----------
Test: Pharmacokinetics after oral administration to control, G-ARF and C-ARF rats
Assay type: in vivo, Sprague–Dawley rats
Settings: Sprague-Dawley, rat, plasma, po, 20 mg/kg, G-ARF rats, read-out: CLR (time-averaged renal clearance)
readout.label: CL renal (mL/min/kg)

- C[C@@H]1CCN(C(=O)CC#N)C[C@@H]1N(C)c1ncnc2[nH]ccc12 [tofacitinib, Tofacitinib]: 1.71

----------
Experiment: Pharmacokinetics after 1-min intravenous infusion to control, G-ARF and C-ARF rats
Type: in vivo, Sprague–Dawley rats
Conditions: Sprague-Dawley, rat, plasma, iv, 10 mg/kg, control rats, read-out: CL (time-averaged total body clearance)
readout.label: clearance (mL/min/kg)

- C[C@@H]1CCN(C(=O)CC#N)C[C@@H]1N(C)c1ncnc2[nH]ccc12 [tofacitinib, Tofacitinib]: 39

----------
Assay: Pharmacokinetics after oral administration to control, G-ARF and C-ARF rats
Format: in vivo, Sprague–Dawley rats
Settings: Sprague-Dawley, rat, plasma, po, 20 mg/kg, control rats, read-out: F (absolute oral bioavailability)
readout.label: bioavailability (%)

* C[C@@H]1CCN(C(=O)CC#N)C[C@@H]1N(C)c1ncnc2[nH]ccc12 | 41.3

----------
Test: Pharmacokinetics after 1-min intravenous infusion to control, G-ARF and C-ARF rats
Assay type: in vivo, Sprague–Dawley rats
Settings: Sprague-Dawley, rat, plasma, iv, 10 mg/kg, G-ARF rats, time zero to infinity
readout.label: AUC

• C[C@@H]1CCN(C(=O)CC#N)C[C@@H]1N(C)c1ncnc2[nH]ccc12 = 7220 ng·h/mL

----------
Assay: Pharmacokinetics after 1-min intravenous infusion to control, G-ARF and C-ARF rats
Assay type: in vivo, Sprague–Dawley rats
Details: Sprague-Dawley, rat, plasma, iv, 10 mg/kg, G-ARF rats
readout.label: MRT (min)

* C[C@@H]1CCN(C(=O)CC#N)C[C@@H]1N(C)c1ncnc2[nH]ccc12 | 53.5
